Entry source: patent US6204293A

# assayed system: Rat brain protein farnesyltransferase (Rattus norvegicus, UniProt Q02293+Q04631)
# Construct: Rat brain protein farnesyltransferase activity is measured; from tissue; host or cells: rat brain
# Sequence (Q02293 whole entry, one chain of several): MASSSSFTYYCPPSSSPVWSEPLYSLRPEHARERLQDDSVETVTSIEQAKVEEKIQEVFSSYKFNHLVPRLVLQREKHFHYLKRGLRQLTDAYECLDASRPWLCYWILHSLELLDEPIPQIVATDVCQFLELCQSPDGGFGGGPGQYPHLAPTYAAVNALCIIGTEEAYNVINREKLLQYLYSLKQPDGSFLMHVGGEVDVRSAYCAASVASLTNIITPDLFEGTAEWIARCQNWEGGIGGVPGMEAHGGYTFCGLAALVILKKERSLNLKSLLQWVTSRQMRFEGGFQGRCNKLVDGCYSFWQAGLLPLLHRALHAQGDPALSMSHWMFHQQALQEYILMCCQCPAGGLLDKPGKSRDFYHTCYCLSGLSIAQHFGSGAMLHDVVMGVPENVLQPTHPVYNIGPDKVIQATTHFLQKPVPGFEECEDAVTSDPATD
# method notes: % inhibition of farnesylation, scintillation proximity assay with biotin-K Ras B fragment
# Assay type: biochemical
# particulars: Table 1; 1 × 10^-5 M
Please note: rule met applies when % inhibition at 1 × 10^-5 M is 80% or greater, and rule not met applies otherwise.

{"columns": ["compound", "discrete label"],
 "data": [
  ["CSCC[C@H](NC(=O)c1ccc(CNc2ccc(-c3ccccc3)cc2)cc1-c1ccccc1)C(=O)O", "rule not met"],
  ["CSCC[C@H](NC(=O)c1ccc(CNCCc2cccs2)cc1-c1ccccc1)C(=O)O", "rule met"],
  ["CSCC[C@H](NC(=O)c1ccc(CNCCN2CCOCC2)cc1-c1ccccc1)C(=O)O", "rule met"],
  ["CSCC[C@H](NC(=O)c1ccc(CNC(CO)Cc2ccccc2)cc1-c1ccccc1)C(=O)O (stereo partly shown)", "rule not met"]
]}

Reported % inhibition at 1 × 10^-5 M at or above 80%? CSCC[C@H](NC(=O)c1ccc(CNc2ccc3c(c2)Cc2ccccc2-3)cc1-c1ccccc1)C(=O)O
rule not met

Likewise for COc1cc(I)c(C(=O)Nc2ccc(C(=O)N[C@@H](CCSC)C(=O)O)c(-c3ccccc3)c2)cc1OC ?
rule not met

---

# assayed system: Rat brain protein farnesyltransferase (Rattus norvegicus, UniProt Q02293+Q04631)
# Construct: Rat brain protein farnesyltransferase activity is measured; from tissue; host or cells: rat brain
# method notes: % inhibition of farnesylation, scintillation proximity assay with biotin-K Ras B fragment
# Assay type: biochemical
# particulars: read-out: % inhibition at 1 × 10^-8 M; Table 4; 1 × 10^-8 M
# Description: The ability of the compounds of the invention to inhibit protein farnesyltransferase or protein geranylgeranyltransferase can be measured according to the method of Moores, et al., J. Biol. Chem. 266: 14603 (1991) or the method of Vogt, et al., J. Biol. Chem. 270:660-664 (1995). […] In addition, in vitro inhibition of protein farnesyltransferase may be measured by the following procedure. […] The % inhibition of protein farnesyltransferase was determined for representative compounds of the invention.
Where a name gives a salt, the structure may show the parent alone.
Recorded inhibition at 0.01 µM for the following compounds
The reply should be a number in %, with the unit left off.

Sample answers from the record:
{"columns": ["compound", "readout kind", "result value"],
 "data": [
  ["CSCC[C@H](NC(=O)c1ccc(OCCCCC2CCCCC2)cc1-c1ccccc1C)C(=O)O [Example 567, lithium salt]", "inhibition at 0.01 µM", 69],
  ["CSCC[C@H](NC(=O)c1ccc(COCc2ccc(-c3ccc(N(C)C)cc3)o2)cc1-c1ccccc1C)C(=O)O [Example 821, lithium salt]", "inhibition at 0.01 µM", 75],
  ["CCCCC(OCc1ccc(C(=O)N[C@@H](CCSC)C(=O)O)c(-c2ccccc2C)c1)c1cncs1 (stereo partly drawn)", "inhibition at 0.01 µM", 89]
]}

Param item = CSCC[C@H](NC(=O)c1ccc(COCc2ccc(-c3ccc(Cl)cc3)o2)cc1-c1ccccc1C)C(=O)NS(=O)(=O)c1ccccc1 ; retrieve measured inhibition at 0.01 µM.
76

Same thing, different compound: CSCC[C@H](NC(=O)c1ccc(CO[C@H](CSC(C)(C)C)CC2CCCCC2)cc1-c1ccccc1C)C(=O)O [Example 883, lithium salt]
91

Input CCSC[C@H](CC1CCCCC1)OCc1ccc(C(=O)N[C@@H](CCSC)C(=O)O)c(-c2ccccc2C)c1 [Example 606, Lithium Salt]
93

Try this compound too: CSCC[C@H](NC(=O)c1ccc(CO[C@H](CSC)CC2CCCCC2)cc1-c1ccccc1C)C(=O)O [Example 882, lithium salt]
79

Follow-up entry: CSCC[C@H](NC(=O)c1ccc(CSCc2ccccc2)cc1-c1ccccc1C)C(=O)NS(=O)(=O)c1ccc(C)cc1
90

Same for CSCC[C@H](NC(=O)c1ccc(CO[C@H](CSC(C)(C)C)Cc2ccccc2)cc1-c1ccccc1C)C(=O)O
83

Repeat with CSCC[C@H](NC(=O)c1ccc(CO[C@@H](CC2CCCCC2)CN2CCOCC2)cc1-c1ccccc1C)C(=O)O [Example 885, trifluoroacetate salt]
95

Okay, and CCCCC(Cc1ccccc1Cl)OCc1ccc(C(=O)N[C@@H](CCSC)C(=O)O)c(-c2ccccc2C)c1 (stereo partly drawn) ?
79

Next entry: CSCC[C@H](NC(=O)c1ccc(CO[C@H](CSc2ccccc2)CC2CCCCC2)cc1-c1ccccc1C)C(=O)O [Example 884, lithium salt]
94
